- protocol: Antiproliferative activity against human SMMC7721 cells after 48 hrs by MTT assay
- Format: functional, cell-based
- run-parameters: SMMC-7721, 48 h
property: pIC50
Just the number, please; pIC50 means minus log10 of the concentration in mol/L.

Below are worked cases with known answers.
compound: CC1(C)C(=O)CC[C@]2(C)[C@@H]1C[C@@H](O)[C@]13C(=O)C(CNc4ccc(Cl)cc4)[C@H](CC[C@@H]21)[C@H]3O (stereo partly drawn)
pIC50: 4.85

compound: CC1(C)C(=O)CC[C@]2(C)[C@@H]1C[C@@H](O)[C@]13C(=O)C(CNC4CCCCC4)[C@H](CC[C@@H]21)[C@H]3O (stereo partly drawn)
pIC50: 4.82

compound: CC1(C)C(=O)CC[C@]2(C)[C@@H]1C[C@@H](O)[C@]13C(=O)C(CNc4ccccc4Cl)[C@H](CC[C@@H]21)[C@H]3O (stereo partly drawn)
pIC50: 4.49

compound: Cc1cccc(NCC2C(=O)[C@@]34[C@H](O)C[C@@H]5C(C)(C)C(=O)CC[C@@]5(C)[C@@H]3CC[C@@H]2[C@H]4O)c1 (stereo partly drawn)
pIC50: 4.68

compound: CC1(C)C(=O)CC[C@]2(C)[C@@H]1C[C@@H](O)[C@]13C(=O)C(CNc4ccc(F)cc4)[C@H](CC[C@@H]21)[C@H]3O (stereo partly drawn)
pIC50: 4.70

Can you share its pIC50? I mean this compound: CC1(C)C(=O)CC[C@]2(C)[C@@H]1C[C@@H](O)[C@]13C(=O)C(CNc4ccc(Br)cc4)[C@H](CC[C@@H]21)[C@H]3O (stereo partly drawn)
4.74

Would you mind doing CC1(C)C(=O)CC[C@]2(C)[C@@H]1C[C@@H](O)[C@]13C(=O)C(CNc4ccc(S(=O)(=O)c5ccccc5)cc4)[C@H](CC[C@@H]21)[C@H]3O (stereo partly drawn) as well?
4.85

Would you mind doing Cc1ccccc1NCC1C(=O)[C@@]23[C@H](O)C[C@@H]4C(C)(C)C(=O)CC[C@@]4(C)[C@@H]2CC[C@@H]1[C@H]3O (stereo partly drawn) as well?
4.65

Would you mind doing CC1(C)C(=O)CC[C@]2(C)[C@@H]1C[C@@H](O)[C@]13C(=O)C(CNc4ccc(C(=O)O)cc4)[C@H](CC[C@@H]21)[C@H]3O (stereo partly drawn) as well?
4.78

Would you mind doing Cc1ccc(NCC2C(=O)[C@@]34[C@H](O)C[C@@H]5C(C)(C)C(=O)CC[C@@]5(C)[C@@H]3CC[C@@H]2[C@H]4O)cc1 (stereo partly drawn) as well?
4.92

====

Reported remaining at 24 h, 1 µM is given for each of the following molecules.
- protocol: Stability in 80% rat plasma assessed as parent compound remaining at 1 uM at 37 degC after 24 hrs by HPLC method
- Format: ADME, cell-free
- run-parameters: read-out: Stability
// return numeric value only (unit: %, not printed)

molecule: Cc1ccc(NCC2C(=O)[C@@]34[C@H](O)C[C@@H]5C(C)(C)C(=O)CC[C@@]5(C)[C@@H]3CC[C@@H]2[C@H]4O)cc1 (some centres not stated)
measured-value: 86.4

Proceeding to the next molecule to report its remaining at 24 h, 1 µM.
Can you share its remaining at 24 h, 1 µM? I mean this molecule: C=C1C(=O)[C@@]23[C@H](O)C[C@@H]4C(C)(C)C(=O)CC[C@@]4(C)[C@@H]2CC[C@@H]1[C@H]3O
24.2

====

- protocol: Antiproliferative activity against human SMMC7721 cells after 48 hrs by MTT assay
- Assay type: functional, cell-based
- run-parameters: SMMC-7721, 48 h
Reported IC50 is given for each of the following compounds.
Remember to follow the number with its unit.

compound: C=C1C(=O)[C@@]23[C@H](O)C[C@@H]4C(C)(C)C(=O)CC[C@@]4(C)[C@@H]2CC[C@@H]1[C@H]3O
IC50: 8.11 µM

Can you share its IC50? I mean this compound: COc1ccc(NCC2C(=O)[C@@]34[C@H](O)C[C@@H]5C(C)(C)C(=O)CC[C@@]5(C)[C@@H]3CC[C@@H]2[C@H]4O)cc1 (stereo not given in full)
18 µM

Would you mind doing CC(=O)c1ccc(NCC2C(=O)[C@@]34[C@H](O)C[C@@H]5C(C)(C)C(=O)CC[C@@]5(C)[C@@H]3CC[C@@H]2[C@H]4O)cc1 (stereo not given in full) as well?
26.1 µM

Would you mind doing CC1(C)C(=O)CC[C@]2(C)[C@@H]1C[C@@H](O)[C@]13C(=O)C(CNc4cccc(C#N)c4)[C@H](CC[C@@H]21)[C@H]3O (stereo not given in full) as well?
19.1 µM

Would you mind doing CC1(C)C(=O)CC[C@]2(C)[C@@H]1C[C@@H](O)[C@]13C(=O)C(CNc4ccccc4)[C@H](CC[C@@H]21)[C@H]3O (stereo not given in full) as well?
48 µM

====

Reported IC50 is given for each of the following molecules.
- Test system: B16
- protocol: Antiproliferative activity against mouse B16 cells after 48 hrs by MTT assay
- Assay type: functional, cell-based
- run-parameters: B16, 48 h
Remember to follow the number with its unit.

Below are worked cases with known answers.
molecule: CC1(C)C(=O)CC[C@]2(C)[C@@H]1C[C@@H](O)[C@]13C(=O)C(CNc4ccccc4)[C@H](CC[C@@H]21)[C@H]3O (stereo partly drawn)
IC50: 11.5 µM
--
molecule: CC1(C)C(=O)CC[C@]2(C)[C@@H]1C[C@@H](O)[C@]13C(=O)C(CNc4cccc(C#N)c4)[C@H](CC[C@@H]21)[C@H]3O (stereo partly drawn)
IC50: 18.2 µM
--
molecule: CC1(C)C(=O)CC[C@]2(C)[C@@H]1C[C@@H](O)[C@]13C(=O)C(CNc4ccc(Br)cc4)[C@H](CC[C@@H]21)[C@H]3O (stereo partly drawn)
IC50: 10.9 µM

Form field: IC50 recorded for CC1(C)C(=O)CC[C@]2(C)[C@@H]1C[C@@H](O)[C@]13C(=O)C(CNc4ccccc4Br)[C@H](CC[C@@H]21)[C@H]3O (stereo partly drawn) with B16 (enter value)
15.2 µM

Would you mind doing CC1(C)C(=O)CC[C@]2(C)[C@@H]1C[C@@H](O)[C@]13C(=O)C(CNc4ccc(Cl)cc4)[C@H](CC[C@@H]21)[C@H]3O (stereo partly drawn) as well?
9.4 µM

Would you mind doing C=C1C(=O)[C@@]23[C@H](O)C[C@@H]4C(C)(C)C(=O)CC[C@@]4(C)[C@@H]2CC[C@@H]1[C@H]3O as well?
4.84 µM

====

Reported IC50 is given for each of the following compounds.
- Tested on: B16
- protocol: Antiproliferative activity against mouse B16 cells after 48 hrs by MTT assay
- Type: functional, cell-based
- run-parameters: B16, 48 h
// return numeric value only (unit: µM, not printed)

Can you share its IC50? I mean this compound: COc1ccc(NCC2C(=O)[C@@]34[C@H](O)C[C@@H]5C(C)(C)C(=O)CC[C@@]5(C)[C@@H]3CC[C@@H]2[C@H]4O)cc1 (stereo not given in full)
12.1

Would you mind doing CC1(C)C(=O)CC[C@]2(C)[C@@H]1C[C@@H](O)[C@]13C(=O)C(CNc4ccc(C(=O)O)cc4)[C@H](CC[C@@H]21)[C@H]3O (stereo not given in full) as well?
6.79

Would you mind doing CC1(C)C(=O)CC[C@]2(C)[C@@H]1C[C@@H](O)[C@]13C(=O)C(CNc4ccccc4Cl)[C@H](CC[C@@H]21)[C@H]3O (stereo not given in full) as well?
16.7

Would you mind doing CC1(C)C(=O)CC[C@]2(C)[C@@H]1C[C@@H](O)[C@]13C(=O)C(CNC4CCCCC4)[C@H](CC[C@@H]21)[C@H]3O (stereo not given in full) as well?
5.66

Would you mind doing CC1(C)C(=O)CC[C@]2(C)[C@@H]1C[C@@H](O)[C@]13C(=O)C(CNc4ccc(S(=O)(=O)c5ccccc5)cc4)[C@H](CC[C@@H]21)[C@H]3O (stereo not given in full) as well?
10.5

====

Reported IC50 is given for each of the following molecules.
- protocol: Antiproliferative activity against human SMMC7721 cells after 48 hrs by MTT assay
- Type: functional, cell-based
- run-parameters: SMMC-7721, 48 h
Remember to follow the number with its unit.

Below are worked cases with known answers.
molecule: O=c1[nH]cc(F)c(=O)[nH]1
IC50: 67.7 µM
//
molecule: CC1(C)C(=O)CC[C@]2(C)[C@@H]1C[C@@H](O)[C@]13C(=O)C(CNc4ccccc4Br)[C@H](CC[C@@H]21)[C@H]3O (stereo partly drawn)
IC50: 28.4 µM

Can you share its IC50? I mean this molecule: CC1(C)C(=O)CC[C@]2(C)[C@@H]1C[C@@H](O)[C@]13C(=O)C(CNc4ccccc4F)[C@H](CC[C@@H]21)[C@H]3O (stereo partly drawn)
14.5 µM
